Data credit: ChEMBL document CHEMBL1777708

# protocol_details: Dissociation constant, pKa of the compound by spectrophotometry
# Format: physicochemical
assay_metric: pKa

Request the reported pKa associated with Cc1nc2c3ccccc3cc[n+]2c(C)c1[O-]
4
